// merged dataset of Ki values, system = Sodium-dependent serotonin transporter (Homo sapiens), multiple refs
Answers are plain numbers, in nM.

compound="c1ccc(CN(c2ccc3[nH]ccc3c2)C2CCNC2)cc1 (stereo unspecified)" value_type=Ki reported_value=20
compound="COc1ccc(C2CN(C)Cc3cc(OCCCN4CCC(F)(F)C4)ccc32)cc1 (stereo unspecified)" value_type=Ki reported_value=7.3
compound=COc1c(OCCF)cccc1[C@H](O)C1CCN(CCc2ccc(F)cc2)CC1 value_type=Ki reported_value=2210
compound="COc1ccc(C2CN(C)Cc3cc(OCCCN4CCN(c5ccc(C#N)cc5)CC4)ccc32)cc1 (stereo unspecified)" value_type=Ki reported_value=8

List Ki for every entry below, keeping the order given.
1. COc1ccc2[nH]cc(C3CC(=O)N(CCN4CCC(c5c[nH]c6ccccc56)CC4)C3=O)c2c1 (stereo unspecified)
2. CNCCC(Oc1cccc2ccccc12)c1ccsc1 (stereo unspecified)

Solution:
1: 142; 2: 1.1

---

Field log10 Ki: reported value for Sodium-dependent serotonin transporter (Homo sapiens); entries drawn from several documents.
A value of 2 here means Ki of 100 in nM, since values are log10.

Record excerpt, results attached:
compound="O=c1[nH]c2cccc(OCC3CCN(CC4CCc5[nH]c6ccc(F)cc6c5C4)CC3)c2o1 (stereo not given)" reported_value=-0.40
compound=COc1cc2c(cc1OC)C1=NO[C@@H](CN3CCN(C/C=C(\C)c4cccs4)CC3)[C@@H]1CO2 reported_value=1.87
compound=CS(=O)(=O)Nc1cccc(OCCN2CCC(Cc3ccc4c(c3)NC(=O)CC4)CC2)c1 reported_value=1.28

Give me log10 Ki for each of these compounds, listed below.
1. Fc1cccc(O[C@@H](c2ccccc2)[C@@H]2CNCCO2)c1F
2. COc1cc2c(cc1OC)C1=NO[C@@H](CN3CCN(C/C(C)=C/c4cccnc4)CC3)[C@@H]1CO2

Solution:
3.53
1.80

---

pKi: −log10 of the molar value.
Here we gather pKi data for Sodium-dependent serotonin transporter (Homo sapiens, UniProt P31645) reported by several publications.
Label rule, in plain words: pKi of 8 and up is YES, under 8 is NO.

compound=C[C@H]1c2c([nH]c3ccc(C(F)(F)F)cc23)C[C@H]2CCN(CCC3(C(=O)O)CCCCC3)C[C@@H]21 group=NO

Problem: Can `Fc1cccc(C2CCNCC2)c1OCc1ccccc1` be said to have pKi at or above 8?
Solution: NO

Problem: Evaluate CNCCC(Oc1cccc2ccccc12)c1ccccc1OC (stereo not given) : pKi at minimum 8?
Solution: YES

Problem: For this compound, is measured pKi 8 or higher? `O=c1ccc(-n2ccnc2)nn1CCCCN1CCN(c2cccc(C(F)(F)F)c2)CC1`
Solution: NO

Problem: Textbook exercise: given the entry COc1c(OCCF)cccc1C(O)C1CCN(CCc2ccc(F)cc2)CC1 (stereo not given) , state whether its pKi is greater than or equal to 8.
Solution: NO

Problem: Determine whether measured pKi meets or exceeds 8 for COc1ccc(C2CN(C)Cc3cc(OCCCN4CCC4)ccc32)cc1 (stereo not given)
Solution: YES

Problem: In plain terms: is recorded pKi at least 8 for CCN(CCCc1c[nH]c2ccc(F)cc12)C1COc2ccc3c(c2C1)C(=O)NCC3 (racemic) ?
Solution: NO

---

System: Sodium-dependent serotonin transporter (Homo sapiens) | Read-out: Ki | Origin: multiple publications
Answers are plain numbers, in nM.

Reference set, count: 6
compound="CNCCC(c1ccccc1)c1cccc2ccccc12 (stereo not drawn)" experimental_system="Sodium-dependent serotonin transporter (Homo sapiens)" reported_value=2.4
compound=FC(F)(F)CN(Cc1ccccc1C(F)(F)F)C1CCNCC1 experimental_system="Sodium-dependent serotonin transporter (Homo sapiens)" reported_value=4.6
compound=CN(C)Cc1ccccc1Sc1ccc(I)cc1CO experimental_system="Sodium-dependent serotonin transporter (Homo sapiens)" reported_value=0.09
compound="CN1Cc2cc(OCCCN3CCC(F)CC3)ccc2C(c2ccccc2)C1 (stereo not drawn)" experimental_system="Sodium-dependent serotonin transporter (Homo sapiens)" reported_value=46
compound="CN(C)CCC(Oc1ccc(Br)cc1)c1ccc(OCCCN2CCCCC2)cc1 (stereo not drawn)" experimental_system="Sodium-dependent serotonin transporter (Homo sapiens)" reported_value=9
compound=Cc1ccc2c(N3CCN(CCc4ccc5c(c4F)NC(=O)CO5)CC3)cccc2n1 experimental_system="Sodium-dependent serotonin transporter (Homo sapiens)" reported_value=5.01

Quick batch: Ki for everything below.
1. O=C1CCc2ccc(OCCCCN3CCN(c4cccc5[nH]c(=O)oc45)CC3)cc2N1
2. COc1nc(NCCCN2CCOCC2)nc(OC)c1NC(=O)c1ccc(Oc2cc3c(cc2C)CCC3(C)C)o1
3. COc1ccccc1N1CCN(CCCN2CCOc3ccccc32)CC1
4. Fc1ccc(OCc2ccc(Cl)c(Cl)c2)c(C2CCNCC2)c1
5. Fc1cccc(F)c1Oc1ncccc1C1CCNCC1

Solution:
1: 94; 2: 1430; 3: 195; 4: 2; 5: 1850

---

Reported pKi on Sodium-dependent serotonin transporter (Homo sapiens, UniProt P31645) for assorted compounds, compiled from publications.
One number for each entry, as −log10 of the molar value.

compound="CN(CCCc1c[nH]c2ccc(F)cc12)C1COc2ccc3c(c2C1)C(=O)NC3 (racemic)" experimental_system="Sodium-dependent serotonin transporter (Homo sapiens, UniProt P31645)" reported_value=8.05
compound=Cc1cccc(F)c1Oc1ncccc1C1CCNCC1 experimental_system="Sodium-dependent serotonin transporter (Homo sapiens, UniProt P31645)" reported_value=6.99
compound=CN(C)Cc1cc(OCCF)ccc1Sc1ccc(Br)cc1N experimental_system="Sodium-dependent serotonin transporter (Homo sapiens, UniProt P31645)" reported_value=10.30

Need pKi for each of these compounds.
1. O=C1Cc2c(ccc3c2OC[C@H](CNCC2CCc4[nH]c5ccc(F)cc5c4C2)O3)N1 (single isomer, unassigned)
2. O=C1CC(c2c[nH]c3ccc(F)cc23)C(=O)N1CCN1CCC(c2c[nH]c3ccc(F)cc23)CC1 (configuration not stated)
3. CN(CCCN(C)CCc1ccccc1)CCOC(c1ccccc1)c1ccccc1
4. CNCc1cc(C#CCCN2CCNC(=O)C2)ccc1Oc1ccc(SC)cc1
5. CCN(CCCc1c[nH]c2ccc(F)cc12)C1COc2ccc3c(c2C1)C(=O)NC3 (racemic)

Solution:
1. 8.15
2. 6.50
3. 5.82
4. 8.89
5. 8.10

Go through the list and state pKi for each entry.
1. C[C@H]1CN(c2ccc3cc(F)ccc3c2)CCN1CC[C@@H]1OCCc2cc(C(N)=O)ccc21
2. COc1cc(Cl)ccc1O[C@@H](c1ccc(F)cc1)[C@@H]1CNCCO1
3. FC(F)(F)c1cc(Oc2nccc3occc23)ccc1-c1cccc2nccn12

Solution:
1: 8.68; 2: 7.21; 3: 5.01

The following compounds each have a reported value; give each one's pKi.
1. COc1ccc2[nH]cc(C3CCN(CCCN4C(=O)CC(c5c[nH]c6ccc(F)cc56)C4=O)CC3)c2c1 (configuration not stated)
2. CN(C)Cc1ccccc1Oc1ccc(I)cc1CO
3. O=C1/C(=C/c2ccccc2N2CCNCC2)SCCN1c1ccc(F)cc1F
4. CN(C)Cc1cc(OCCCO)ccc1Sc1ccccc1N
5. COCCOc1cc(CC2CCN(CCc3ccc4c(c3)C(=O)CCC4)CC2)ccc1Br

Solution:
6.81
9.92
7.01
8.89
9.17

Working through the 8 compounds below one at a time, give pKi for each.
1. CCc1ccc(Sc2ccccc2CNC)c(N)c1
2. COc1cc(Cl)ccc1O[C@@H](c1cccc(C)c1)[C@@H]1CNCCO1
3. Cc1ccc(Sc2ccccc2CN)c(N)c1
4. Clc1cccc(O[C@@H](c2ccccc2)[C@@H]2CNCCO2)c1Cl
5. COc1cc2c(cc1OC)C1=NO[C@@H](CN3CCN(C/C=C/c4ccc(F)cc4)CC3)[C@@H]1CO2
6. CNCCC(Oc1cccc2ccccc12)c1ccc(Cl)cc1 (configuration not stated)
7. O=C1CC(c2c[nH]c3ccc(F)cc23)C(=O)N1CCCCN1CCC(c2c[nH]c3ccccc23)CC1 (configuration not stated)
8. Fc1cccc(Cl)c1Oc1cccc(F)c1OC1CCNCC1

Solution:
8.69
7.16
7.52
7.00
8.25
8.42
7.29
5.69

Batch lookup, pKi per entry.
1. CNCCC(Oc1cccc2ccccc12)c1ccco1 (configuration not stated)
2. Cc1cc(F)ccc1O[C@H](c1ccccc1)[C@H]1CNCCO1
3. COc1ccc(C2=NN(CCCCCNCC[C@@H](Oc3cccc4ccccc34)c3cccs3)C(=O)[C@@H]3CC=CC[C@H]23)cc1OC
4. CS(=O)(=O)Nc1cccc(OCCN2CCC(Oc3ccc4c(c3)NC(=O)CC4)CC2)c1
5. CN(C)Cc1cc(OCCO)ccc1Sc1ccccc1N
6. COc1cc(Cl)ccc1O[C@@H](c1ccccc1C)[C@@H]1CNCCO1
7. CCC(CC)N(C(=O)c1cccc(Cl)c1Cl)[C@H]1CCNC1

Solution:
[9.15, 7.47, 6.90, 7.66, 8.96, 7.15, 7.70]

Problem: Name the value of pKi reported for O=C1Cc2c(ccc3c2OC[C@H](CNCCC2CCc4c([nH]c5ccc(F)cc45)C2)O3)N1 (some centres not stated) when tested on Sodium-dependent serotonin transporter (Homo sapiens, UniProt P31645).
Solution: 5.28
